- target.under.test: WRN [UniPro: Q14191 (WRN_HUMAN), N500-C946] (Homo sapiens (Human))
- Sequence (Q14191 500-946): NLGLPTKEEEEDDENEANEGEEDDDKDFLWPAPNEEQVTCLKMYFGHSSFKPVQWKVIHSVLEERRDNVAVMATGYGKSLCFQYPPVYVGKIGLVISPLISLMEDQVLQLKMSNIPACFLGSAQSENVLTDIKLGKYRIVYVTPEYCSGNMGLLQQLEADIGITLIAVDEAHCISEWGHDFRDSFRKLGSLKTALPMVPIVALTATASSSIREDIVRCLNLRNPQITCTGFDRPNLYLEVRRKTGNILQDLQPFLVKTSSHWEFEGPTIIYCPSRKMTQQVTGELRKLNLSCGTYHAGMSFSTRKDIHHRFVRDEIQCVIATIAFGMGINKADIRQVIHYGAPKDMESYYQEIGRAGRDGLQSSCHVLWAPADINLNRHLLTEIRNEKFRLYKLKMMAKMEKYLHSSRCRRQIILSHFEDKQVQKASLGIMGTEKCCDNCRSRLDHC
- experimental.protocol: WRN unwinding assay (FORKF DNA, fluorescence)
- Assay type: biochemical
- assay.context: Table 14
pIC50: −log10 of the molar value.
Overview of reported pIC50 across a group of compounds:
result.type: pIC50

{"smi": "CCc1c(N2CCN(C(=O)c3nccc4[nH]ccc34)CC2)c(=O)n2nc(C3=CCOCC3)nc2n1CC(=O)Nc1ccc(Cl)cc1C(F)(F)F", "result.type": "pIC50", "result": "> 7.00"}
{"smi": "CCNC(=O)N1CCN(c2c(CC)n(CC(=O)Nc3ccc(C(F)(F)F)cc3Cl)c3nc(C4=CCOCC4)nn3c2=O)CC1", "result.type": "pIC50", "result": "6.00 to 7.00"}
{"smi": "CCc1c(N2CCN(C(=O)CNC(=O)NC3CC3)CC2)c(=O)n2nc(C3=CCOCC3)nc2n1CC(=O)Nc1ccc(C(F)(F)F)cc1Cl", "result.type": "pIC50", "result": "> 7.00"}

---

# key: entry, value: IC50
- target.under.test: WRN [UniPro: Q14191 (WRN_HUMAN), N500-C946] (Homo sapiens (Human))
- experimental.protocol: WRN ATPase assay (ADP-Glo)
- Type: biochemical
- assay.context: WRN enzymatic activity assay

{"smi": "[2H]C([2H])(NC(=O)c1ccccc1F)C(=O)N1CCN(c2c(CC)n(CC(=O)Nc3ccc(C(F)(F)F)cc3Cl)c3nc(N4CCOCC4)nn3c2=O)CC1", "IC50": "< 100 nM"}
{"smi": "CCc1c(N2CCN(C(=O)CNC(=O)c3ccccc3OC)CC2)c(=O)n2nc(C3=CCOCC3)nc2n1CC(=O)Nc1ccc(C(F)(F)F)cc1Cl", "IC50": "< 100 nM"}
{"smi": "CCc1c(N2CCN(C(=O)c3nccc4[nH]ccc34)CC2)c(=O)n2nc(C3=CCOCC3)nc2n1CC(=O)Nc1ccc(Cl)cc1C(F)(F)F", "IC50": "< 100 nM"}
{"smi": "CCc1c(N2CCN(C(=O)CNC(=O)c3ccccc3F)CC2)c(=O)n2nc(SC)nc2n1CC(=O)Nc1ccc(C(F)(F)F)cc1Cl", "IC50": "100 to 1000 nM"}
{"smi": "CCc1c(N2CCN(C(=O)CNC(=O)c3ccccc3F)CC2)c(=O)n2nc(N3CCOCC3)cc2n1CC(=O)Nc1ccc(C(F)(F)F)cc1Cl", "IC50": "100 to 1000 nM"}
{"smi": "CCc1c(N2CCN(C(=O)CNC(=O)Nc3ccccc3F)CC2)c(=O)n2nc(C3=CCOCC3)nc2n1CC(=O)Nc1ccc(C(F)(F)F)cc1Cl", "IC50": "< 100 nM"}

---

- target.under.test: WRN [UniPro: Q14191 (WRN_HUMAN), N500-C946] (Homo sapiens (Human))
- experimental.protocol: WRN ATPase assay (ADP-Glo)
- Format: biochemical
- assay.context: WRN enzymatic activity assay
The entries below come with measured IC50 values attached.

{"smi": "CCOC(=O)NCC(=O)N1CCN(c2c(CC)n(CC(=O)Nc3ccc(C(F)(F)F)cc3Cl)c3nc(C4=CCOCC4)nn3c2=O)CC1", "IC50": "< 0.1 µM"}
{"smi": "CCc1c(N2CCN(C(=O)CNC(=O)c3nc(C)cs3)CC2)c(=O)n2nc(C3=CCOCC3)nc2n1CC(=O)Nc1ccc(C(F)(F)F)cc1Cl", "IC50": "< 0.1 µM"}
{"smi": "CCc1c(N2CCN(C(=O)CNC(C)=O)CC2)c(=O)n2nc(C3=CCOCC3)nc2n1CC(=O)Nc1ccc(C(F)(F)F)cc1Cl", "IC50": "< 0.1 µM"}
{"smi": "CCc1c(N2CCN(C(=O)c3cn(C)c(=O)[nH]c3=O)CC2)c(=O)n2nc(C3=CCOCC3)nc2n1CC(=O)Nc1ccc(C(F)(F)F)cc1Cl", "IC50": "0.1 to 1 µM"}
{"smi": "CCc1c(N2CCN(C(=O)CNC(=O)c3ncco3)CC2)c(=O)n2nc(C3=CCOCC3)nc2n1CC(=O)Nc1ccc(C(F)(F)F)cc1F", "IC50": "< 0.1 µM"}
{"smi": "CCc1c(N2CCN(C(=O)c3cn(C)[nH]c3=O)CC2)c(=O)n2nc(C3=CCOCC3)nc2n1CC(=O)Nc1ccc(C(F)(F)F)cc1Cl", "IC50": "0.1 to 1 µM"}

---

Reported pIC50 values follow for various compounds
- target.under.test: WRN [UniPro: Q14191 (WRN_HUMAN), N500-C946] (Homo sapiens (Human))
- experimental.protocol: WRN ATPase assay (ADP-Glo)
- Assay type: biochemical
- assay.context: WRN enzymatic activity assay
pIC50: −log10 of the molar value.
result.type: pIC50

{"compound": "CCc1c(N2CCN(C(=O)c3cnc4sccc4c3O)CC2)c(=O)n2nc(C3=CCOCC3)nc2n1CC(=O)Nc1ccc(C(F)(F)F)cc1Cl [Example 55]", "result": "> 7.00"}
{"compound": "CCc1c(N2CCN(C(=O)CNC(=O)c3ccccc3O)CC2)c(=O)n2nc(C3=CCOCC3)nc2n1CC(=O)Nc1ccc(C(F)(F)F)cc1Cl [Example 269]", "result": "> 7.00"}
{"compound": "CCc1c(N2CCN(C(=O)CNS(=O)(=O)c3ccccc3)CC2)c(=O)n2nc(C3=CCOCC3)nc2n1CC(=O)Nc1ccc(C(F)(F)F)cc1Cl [Example 171]", "result": "6.00 to 7.00"}
{"compound": "CCc1c(N2CCN(C(=O)CNC(=O)c3c(O)cc(C)oc3=O)CC2)c(=O)n2nc(C3=CCOCC3)nc2n1CC(=O)Nc1ccc(C(F)(F)F)cc1Cl [Example 295]", "result": "6.00 to 7.00"}
{"compound": "CCc1c(N2CCN(C(=O)CNC(=O)c3cc(NC)ccc3F)CC2)c(=O)n2nc(C3=CCOCC3)nc2n1CC(=O)Nc1ccc(C(F)(F)F)cc1F [Example 215]", "result": "> 7.00"}
{"compound": "CCc1c(N2CCN(C(=O)CNC(=O)c3c[nH][nH]c3=O)CC2)c(=O)n2nc(C3=CCOCC3)nc2n1CC(=O)Nc1ccc(C(F)(F)F)cc1Cl [Example 108]", "result": "> 7.00"}
{"compound": "CCc1c(N2CCN(C(=O)C(=O)Nc3nccs3)CC2)c(=O)n2nc(N3CCN4C(=O)OC[C@H]4C3)nc2n1CC(=O)Nc1ccc(C(F)(F)F)cc1F [Example 264]", "result": "> 7.00"}
{"compound": "CCc1c(N2CCN(C(=O)c3nc(C(F)(F)F)c[nH]3)CC2)c(=O)n2nc(C3=CCOCC3)nc2n1CC(=O)Nc1ccc(C(F)(F)F)cc1Cl [Example 1]", "result": "6.00 to 7.00"}
{"compound": "CCc1c(N2CCN(C(=O)CNC(=O)c3cc(N(C)C)ccc3F)CC2)c(=O)n2nc(C3=CCOCC3)nc2n1CC(=O)Nc1ccc(C(F)(F)F)cc1F [Example 224]", "result": "> 7.00"}
{"compound": "CCc1c(N2CCN(C(=O)c3nn(C)c(=O)[nH]c3=O)CC2)c(=O)n2nc(C3=CCOCC3)nc2n1CC(=O)Nc1ccc(C(F)(F)F)cc1Cl [Example 58]", "result": "> 7.00"}
{"compound": "CCc1c(N2CCN(C(=O)CNC(=O)c3ncnc(C)c3O)CC2)c(=O)n2nc(N3CCOCC3)nc2n1CC(=O)Nc1ccc(C(F)(F)F)cc1Cl [Example 377]", "result": "> 7.00"}
{"compound": "CCc1c(N2CCN(C(=O)CNC(=O)c3ncco3)CC2)c(=O)n2nc(N3CCOCC3)nc2n1CC(=O)Nc1ccc(C(F)(F)F)cc1Cl [Example 249]", "result": "> 7.00"}
{"compound": "CCc1c(N2CCN(C(=O)CNC(=O)c3cncc(O)c3)CC2)c(=O)n2nc(C3=CCOCC3)nc2n1CC(=O)Nc1ccc(C(F)(F)F)cc1Cl [Example 281]", "result": "> 7.00"}
{"compound": "CCc1c(N2CCN(C(=O)CNC(=O)CC3CC3)CC2)c(=O)n2nc(C3=CCOCC3)nc2n1CC(=O)Nc1ccc(C(F)(F)F)cc1Cl [Example 275]", "result": "> 7.00"}
{"compound": "CCc1c(N2CCN(C(=O)CNC(=O)c3ncccc3F)CC2)c(=O)n2nc(C3=CCOCC3)nc2n1CC(=O)Nc1ccc(C(F)(F)F)cc1Cl [Example 133]", "result": "> 7.00"}
{"compound": "CCc1c(N2CCN(C(=O)CNC(=O)c3ccccc3F)CC2)c(=O)n2nc(N3Cc4ccncc4C3)nc2n1CC(=O)Nc1ccc(C(F)(F)F)cc1Cl [Example 246]", "result": "6.00 to 7.00"}
{"compound": "CCc1c(N2CCN(C(=O)c3cc(-c4cc(OC)ncc4F)[nH]n3)CC2)c(=O)n2nc(C3=CCOCC3)nc2n1CC(=O)Nc1ccc(C(F)(F)F)cc1Cl [Example 9]", "result": "6.00 to 7.00"}
{"compound": "CCc1c(N2CCN(C(=O)CNC(=O)c3ccncc3)CC2)c(=O)n2nc(C3=CCOCC3)nc2n1CC(=O)Nc1ccc(C(F)(F)F)cc1Cl [Example 96]", "result": "> 7.00"}
{"compound": "CCc1c(N2CCN(C(=O)CNC(=O)c3csc(C)n3)CC2)c(=O)n2nc(C3=CCOCC3)nc2n1CC(=O)Nc1ccc(C(F)(F)F)cc1Cl [Example 105]", "result": "6.00 to 7.00"}
{"compound": "CCc1c(N2CCN(C(=O)C(=O)Nc3nccs3)CC2)c(=O)n2nc(N3CCCOCC3)nc2n1CC(=O)Nc1ccc(C(F)(F)F)cc1F [Example 262]", "result": "6.00 to 7.00"}
{"compound": "CCc1c(N2CCN(C(=O)CNC(=O)c3ncco3)CC2)c(=O)n2nc(N3CCCOCC3)nc2n1CC(=O)Nc1ccc(C(F)(F)F)cc1F [Example 257]", "result": "6.00 to 7.00"}
{"compound": "CCc1c(N2CCN(C(=O)CNC(=O)c3ccnc(O)c3)CC2)c(=O)n2nc(C3=CCOCC3)nc2n1CC(=O)Nc1ccc(C(F)(F)F)cc1Cl [Example 279]", "result": "> 7.00"}
{"compound": "CCc1c(N2CCN(C(=O)CNC(=O)c3ccc(F)c(NC)c3)CC2)c(=O)n2nc(N3CCOCC3)nc2n1CC(=O)Nc1ccc(C(F)(F)F)cc1Cl [Example 251]", "result": "> 7.00"}

The measured values listed here are drawn from patent US20260015358A1.
